# key: entry, value: unfolding free energy
B1: Subtilisin-chymotrypsin inhibitor-2A, P01053 (parent)
chain: MSSVEKKPEGVNTGAGDRHNLKTEWPELVGKSVEEAKKVILQDKPEAQIIVLPVGTIVTMEYRIDRVRLFVDKLDNIAQVPRVG

Variants of: B1
Details: Hordeum vulgare; pH 6.3; 25 °C; GdnHCl; Fluorescence; MES 450 mM; reversible: yes; structure 2CI2; whole UniProt chain shown
Return type: number; implicit unit kcal/mol.

E61A ... 6.48
T59A E61A ... 6.87
T59A ... 6.86

# input for lookup
Lab note: measured unfolding free energy of T59D was 7.5
